- Tested on: MDA-MB-468 spheroids with HUVEC/MSC, viability
- EXPERIMENT DESCRIPTION: Anticancer human tumor MDA-MB-468 cell line growth inhibition [PI3K]; active = viability on the fitted dose curve at most 10% of control; inactive = the rest;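 note: spheroids exposed to agents for seven days before readout; 100% = DMSO vehicle control viability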
- CONDITIONS: second compound 0.1 µM; first compound 0.316 µM
Classes used: 1.0 (active), 0.0 (inactive)

INSERT INTO assay_data (molecule, assayed_target, class_assignment) VALUES
  ('Cn1nccc1Nc1nccc(-c2ccn(C(CO)c3ccc(Cl)c(F)c3)c(=O)c2)n1 (stereo unspecified) + CC(Nc1ccc2c(c1)OCCn1cc(N3C(=O)OCC3C(F)F)nc1-2)C(N)=O', 'MDA-MB-468 spheroids with HUVEC/MSC, viability', 0.0),
  ('CCN1CCN(Cc2ccc(Nc3ncc(F)c(-c4cc(F)c5nc(C)n(C(C)C)c5c4)n3)nc2)CC1 + CC(Nc1ncnc2nc[nH]c12)c1cc2cccc(Cl)c2c(=O)n1-c1ccccc1', 'MDA-MB-468 spheroids with HUVEC/MSC, viability', 0.0),
  ('CNC(=O)c1ccc(N2C(=S)N(c3ccc(C#N)c(C(F)(F)F)c3)C(=O)C2(C)C)cc1F + COc1c(OCCCN2CCOCC2)ccc2c3n(c(=NC(=O)c4cnc(N)nc4)nc12)CCN3', 'MDA-MB-468 spheroids with HUVEC/MSC, viability', 0.0),
  ('CC1(C)CCC(Nc2ncc(C(F)(F)F)c(-c3c[nH]c4c(P(C)(C)=O)c(C#N)ccc34)n2)CN1 (stereo unspecified) + CC(Nc1ccc2c(c1)OCCn1cc(N3C(=O)OCC3C(F)F)nc1-2)C(N)=O', 'MDA-MB-468 spheroids with HUVEC/MSC, viability', 1.0),
  ('CCN1CCN(Cc2ccc(Nc3ncc(F)c(-c4cc(F)c5nc(C)n(C(C)C)c5c4)n3)nc2)CC1 + Cc1nc(NC(=O)N2CCCC2C(N)=O)sc1-c1ccnc(C(C)(C)C(F)(F)F)c1', 'MDA-MB-468 spheroids with HUVEC/MSC, viability', 0.0),
  ('CC(Cn1ccc(-c2ccc(C#N)c(Cl)c2)n1)NC(=O)c1cc(C(C)O)[nH]n1 (stereo unspecified) + Cc1nc(NC(=O)N2CCCC2C(N)=O)sc1-c1ccnc(C(C)(C)C(F)(F)F)c1', 'MDA-MB-468 spheroids with HUVEC/MSC, viability', 0.0),
  ('CCCS(=O)(=O)Nc1ccc(F)c(C(=O)c2c[nH]c3ncc(-c4ccc(Cl)cc4)cc23)c1F + CC(Nc1ccc2c(c1)OCCn1cc(N3C(=O)OCC3C(F)F)nc1-2)C(N)=O', 'MDA-MB-468 spheroids with HUVEC/MSC, viability', 0.0),
  ('C=CC(=O)N1CCN(c2nc(=O)n(-c3c(C)ccnc3C(C)C)c3nc(-c4c(O)cccc4F)c(F)cc23)C(C)C1 (stereo unspecified) + COc1c(OCCCN2CCOCC2)ccc2c3n(c(=NC(=O)c4cnc(N)nc4)nc12)CCN3', 'MDA-MB-468 spheroids with HUVEC/MSC, viability', 0.0),
  ('C=CC(=O)N1CCN(c2nc(=O)n(-c3c(C)ccnc3C(C)C)c3nc(-c4c(O)cccc4F)c(F)cc23)C(C)C1 (stereo unspecified) + CC(Nc1ncnc2nc[nH]c12)c1cc2cccc(Cl)c2c(=O)n1-c1ccccc1', 'MDA-MB-468 spheroids with HUVEC/MSC, viability', 0.0),
  ('CC1(C)CCC(CN2CCN(c3ccc(C(=O)NS(=O)(=O)c4ccc(NCC5CCOCC5)c([N+](=O)[O-])c4)c(Oc4cnc5[nH]ccc5c4)c3)CC2)=C(c2ccc(Cl)cc2)C1 + CC(Nc1ncnc2nc[nH]c12)c1cc2cccc(Cl)c2c(=O)n1-c1ccccc1', 'MDA-MB-468 spheroids with HUVEC/MSC, viability', 0.0),
  ('CC(Cn1ccc(-c2ccc(C#N)c(Cl)c2)n1)NC(=O)c1cc(C(C)O)[nH]n1 (stereo unspecified) + COc1c(OCCCN2CCOCC2)ccc2c3n(c(=NC(=O)c4cnc(N)nc4)nc12)CCN3', 'MDA-MB-468 spheroids with HUVEC/MSC, viability', 0.0),
  ('CC(Cn1ccc(-c2ccc(C#N)c(Cl)c2)n1)NC(=O)c1cc(C(C)O)[nH]n1 (stereo unspecified) + CC(Nc1ccc2c(c1)OCCn1cc(N3C(=O)OCC3C(F)F)nc1-2)C(N)=O', 'MDA-MB-468 spheroids with HUVEC/MSC, viability', 0.0),
  ('CC(C)NCC(C(=O)N1CCN(c2ncnc3c2C(C)CC3O)CC1)c1ccc(Cl)cc1 (stereo unspecified) + Cc1nc(NC(=O)N2CCCC2C(N)=O)sc1-c1ccnc(C(C)(C)C(F)(F)F)c1', 'MDA-MB-468 spheroids with HUVEC/MSC, viability', 0.0),
  ('CC1(C)CCC(CN2CCN(c3ccc(C(=O)NS(=O)(=O)c4ccc(NCC5CCOCC5)c([N+](=O)[O-])c4)c(Oc4cnc5[nH]ccc5c4)c3)CC2)=C(c2ccc(Cl)cc2)C1 + CC(Nc1ccc2c(c1)OCCn1cc(N3C(=O)OCC3C(F)F)nc1-2)C(N)=O', 'MDA-MB-468 spheroids with HUVEC/MSC, viability', 0.0),
  ('C=CC(=O)N1CCN(c2nc(=O)n(-c3c(C)ccnc3C(C)C)c3nc(-c4c(O)cccc4F)c(F)cc23)C(C)C1 (stereo unspecified) + CC(Nc1ccc2c(c1)OCCn1cc(N3C(=O)OCC3C(F)F)nc1-2)C(N)=O', 'MDA-MB-468 spheroids with HUVEC/MSC, viability', 0.0),
  ('Cn1nccc1Nc1nccc(-c2ccn(C(CO)c3ccc(Cl)c(F)c3)c(=O)c2)n1 (stereo unspecified) + Cc1nc(NC(=O)N2CCCC2C(N)=O)sc1-c1ccnc(C(C)(C)C(F)(F)F)c1', 'MDA-MB-468 spheroids with HUVEC/MSC, viability', 0.0),
  ('CCCS(=O)(=O)Nc1ccc(F)c(C(=O)c2c[nH]c3ncc(-c4ccc(Cl)cc4)cc23)c1F + Cc1nc(NC(=O)N2CCCC2C(N)=O)sc1-c1ccnc(C(C)(C)C(F)(F)F)c1', 'MDA-MB-468 spheroids with HUVEC/MSC, viability', 0.0),
  ('Cn1nccc1Nc1nccc(-c2ccn(C(CO)c3ccc(Cl)c(F)c3)c(=O)c2)n1 (stereo unspecified) + COc1c(OCCCN2CCOCC2)ccc2c3n(c(=NC(=O)c4cnc(N)nc4)nc12)CCN3', 'MDA-MB-468 spheroids with HUVEC/MSC, viability', 0.0),
  ('C#Cc1c(F)ccc2cc(O)cc(-c3ncc4c(N5CC6CCC(C5)N6)nc(OCC56CCCN5CC(F)C6)nc4c3F)c12 (stereo unspecified) + CC(Nc1ncnc2nc[nH]c12)c1cc2cccc(Cl)c2c(=O)n1-c1ccccc1', 'MDA-MB-468 spheroids with HUVEC/MSC, viability', 0.0),
  ('C#Cc1c(F)ccc2cc(O)cc(-c3ncc4c(N5CC6CCC(C5)N6)nc(OCC56CCCN5CC(F)C6)nc4c3F)c12 (stereo unspecified) + Cc1nc(NC(=O)N2CCCC2C(N)=O)sc1-c1ccnc(C(C)(C)C(F)(F)F)c1', 'MDA-MB-468 spheroids with HUVEC/MSC, viability', 0.0),
  ('C[C@@H](NC(=O)c1ncnc(N)c1Cl)c1ncc(C(=O)Nc2cc(C(F)(F)F)c(Cl)cn2)s1 + CC(Nc1ccc2c(c1)OCCn1cc(N3C(=O)OCC3C(F)F)nc1-2)C(N)=O', 'MDA-MB-468 spheroids with HUVEC/MSC, viability', 0.0);

---

Collected viability, T/C values appear next to each entry.
- Tested on: MDA-MB-468 spheroids with HUVEC/MSC, viability
- EXPERIMENT DESCRIPTION: Anticancer human tumor MDA-MB-468 cell line growth inhibition [PI3K];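 note: spheroids exposed to agents for seven days before readout; 100% = DMSO vehicle control viability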
- CONDITIONS: second compound 0.1 µM; first compound 0.000316 µM; stronger effect = lower value
PROPERTY: viability, T/C (%)

INSERT INTO measurements (compound, measured_result) VALUES
  ('CC(C)n1nc(-c2ccc3oc(N)nc3c2)c2c(N)ncnc21 + CC(Nc1ncnc2nc[nH]c12)c1cc2cccc(Cl)c2c(=O)n1-c1ccccc1', 77.6),
  ('CC(=O)c1c(C)c2cnc(Nc3ccc(N4CCNCC4)cn3)nc2n(C2CCCC2)c1=O + COc1c(OCCCN2CCOCC2)ccc2c3n(c(=NC(=O)c4cnc(N)nc4)nc12)CCN3', 59.5),
  ('CC(=O)c1c(C)c2cnc(Nc3ccc(N4CCNCC4)cn3)nc2n(C2CCCC2)c1=O + CC(Nc1ccc2c(c1)OCCn1cc(N3C(=O)OCC3C(F)F)nc1-2)C(N)=O', 86.5),
  ('CC(=O)c1c(C)c2cnc(Nc3ccc(N4CCNCC4)cn3)nc2n(C2CCCC2)c1=O + Cc1nc(NC(=O)N2CCCC2C(N)=O)sc1-c1ccnc(C(C)(C)C(F)(F)F)c1', 88.3),
  ('Cn1ncnc1[C@H]1c2n[nH]c(=O)c3cc(F)cc(c23)N[C@@H]1c1ccc(F)cc1 + CC(Nc1ncnc2nc[nH]c12)c1cc2cccc(Cl)c2c(=O)n1-c1ccccc1', 78.3),
  ('Cn1ncnc1[C@H]1c2n[nH]c(=O)c3cc(F)cc(c23)N[C@@H]1c1ccc(F)cc1 + Cc1nc(NC(=O)N2CCCC2C(N)=O)sc1-c1ccnc(C(C)(C)C(F)(F)F)c1', 80.2);

Data provenance: PubChem BioAssay AID1963960
